- assayed_system: reuptake of noradrenaline (NA) in synaptosomes (Rattus norvegicus)
- Construct: in synaptosomes as described in WO 97/16451
- Sequence (Q9WTR4 1-597): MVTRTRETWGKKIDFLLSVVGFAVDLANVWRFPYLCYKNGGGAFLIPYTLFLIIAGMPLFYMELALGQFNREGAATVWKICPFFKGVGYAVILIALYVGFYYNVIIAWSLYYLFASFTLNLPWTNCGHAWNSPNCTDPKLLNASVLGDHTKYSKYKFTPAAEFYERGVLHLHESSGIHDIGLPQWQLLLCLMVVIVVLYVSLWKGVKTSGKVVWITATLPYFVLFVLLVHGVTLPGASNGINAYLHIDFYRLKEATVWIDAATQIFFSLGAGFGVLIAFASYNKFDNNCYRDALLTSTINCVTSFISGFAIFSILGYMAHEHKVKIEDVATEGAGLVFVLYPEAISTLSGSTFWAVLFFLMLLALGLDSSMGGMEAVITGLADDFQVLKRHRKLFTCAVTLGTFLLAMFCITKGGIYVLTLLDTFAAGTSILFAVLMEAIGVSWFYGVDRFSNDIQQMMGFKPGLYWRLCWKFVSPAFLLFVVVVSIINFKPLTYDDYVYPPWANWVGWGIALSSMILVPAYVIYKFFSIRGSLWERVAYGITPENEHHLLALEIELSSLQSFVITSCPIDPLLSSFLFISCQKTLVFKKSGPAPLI
- protocol_summary: Inhibition of noradrenaline reuptake in synaptosomes
assay_metric: pIC50
To interpret pIC50, take it as minus log10 of a concentration measured in moles per litre.

Entry NC1CCN(c2ccc(Cl)c(Cl)c2)CC1 [1st compound of method A] , pIC50 reported as 6.82

pIC50 for CNC1CCN(c2ccc(Cl)c(Cl)c2)CC1 [1st compound of method B] is 6.70

====

Record form. Attribute: IC50. Fill in for each entry.
- assayed_system: reuptake of dopamine (DA) in synaptosomes (Rattus norvegicus)
- Construct: in synaptosomes as described in WO 97/16451
- Sequence (P23977 whole entry): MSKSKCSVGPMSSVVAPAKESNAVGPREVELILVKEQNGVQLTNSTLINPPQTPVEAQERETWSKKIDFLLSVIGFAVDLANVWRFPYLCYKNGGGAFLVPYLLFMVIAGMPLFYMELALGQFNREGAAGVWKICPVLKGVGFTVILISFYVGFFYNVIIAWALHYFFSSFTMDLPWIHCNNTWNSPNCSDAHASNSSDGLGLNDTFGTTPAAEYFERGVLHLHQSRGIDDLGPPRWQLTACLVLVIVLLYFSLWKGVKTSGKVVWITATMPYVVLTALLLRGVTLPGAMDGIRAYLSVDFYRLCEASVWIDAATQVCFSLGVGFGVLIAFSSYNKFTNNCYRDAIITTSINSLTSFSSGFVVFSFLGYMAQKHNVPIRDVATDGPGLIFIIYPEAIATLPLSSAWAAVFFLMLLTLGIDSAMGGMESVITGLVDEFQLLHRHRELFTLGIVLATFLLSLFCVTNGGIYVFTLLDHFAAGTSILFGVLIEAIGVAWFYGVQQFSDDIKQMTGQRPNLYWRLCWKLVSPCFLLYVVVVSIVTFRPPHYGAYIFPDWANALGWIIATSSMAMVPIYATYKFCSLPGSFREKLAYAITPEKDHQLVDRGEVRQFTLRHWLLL
- protocol_summary: Inhibition of dopamine reuptake in synaptosomes
Value expressed in nM; do not type the unit.

Measured IC50, CNC1CCN(c2ccc(Cl)c(Cl)c2)CC1 : 380

Looking up NC1CCN(c2ccc(Cl)c(Cl)c2)CC1 , I found its IC50 recorded as 400
